Tested on: binding of CNNM3-YPet and CyPet-PRL2 (CNNM3-PRL2 complex)
Experiment: FRET-based inhibition test of the binding of CNNM3-YPet and CyPet-PRL2
Design: species or system human
Details: inhibitory protein 10 μM; pre-incubated 20 min R.T. with binding partner; CNNM3-YPet 200 nM, CyPet-PRL2 200 nM; TBS pH 8.0; mean, n = 6
result-type: FRET intensity abolished / inhibition of complex formation (%)
Provide the reading as a plain figure in %.

Consider the molecule PRL2: purified non-fluorescence protein-tagged human PRL2 (residues 1–167) (protein, left off: His tag (from the vector pET28a and the Ni-NTA purification), end not stated, state not stated) MNRPAPVEISYENMRFLITHNPTNATLNKFTEELKKYGVTTLVRVCDATYDKAPVEKEGIHVLDWPFDDGAPPPNQIVDDWLNLLKTKFREEPGCCVAVHCVAGLGRAPVLVALALIECGMKYEDAVQFIRQKRRGAFNSKQLLYLEKYRPKMRLRFRDTNGHCCVQ and give its measured FRET intensity abolished / inhibition of complex formation. 89.7
